Test system: ACHN renal
experimental.protocol: NCI-60 one-dose screen, 48 h
run.conditions: 10 µM unless noted
This is part of a sample that, as a whole, favours compounds with a hit. Of some 83,000 tested, about 20% had one in any assay. Calls of active or inactive are those of the source. Rule for the calls: active = growth percent below 10; inactive = the rest.
Outcome codes: y (active), n (inactive)

[
  {
    "compound": "CC[C@H](C)[C@H](NC(=O)c1cnccn1)C(=O)N(C)[C@H](C[C@@H](OC(C)=O)c1nc(C(=O)N[C@@H](Cc2ccccc2)C[C@H](C)C(=O)OC)cs1)C(C)C",
    "qualitative.label": "n"
  },
  {
    "compound": "CC1(C)N=C(N)N=C(N)N1c1ccc(CCC(=O)Nc2ccc(S(=O)(=O)F)cc2)cc1",
    "qualitative.label": "n"
  },
  {
    "compound": "O=C(NC(Cl)=C(Cl)Cl)P(=O)(c1ccccc1)c1ccccc1",
    "qualitative.label": "n"
  },
  {
    "compound": "C[C@@H]1C/C=C\\C(=O)O[C@H](/C=C/C#C/C=C/C(C)(C)[C@@H](O)c2cccc(O)c2Br)[C@@H](C)/C=C/[C@H](C)C[C@H](OC(N)=O)C1",
    "qualitative.label": "n"
  },
  {
    "compound": "O=C(O)CNCP(=O)(O)O",
    "qualitative.label": "n"
  },
  {
    "compound": "CC1(C)CN=C(NN=C(/C=C/c2ccc(C(F)(F)F)cc2)/C=C/c2ccc(C(F)(F)F)cc2)NC1",
    "qualitative.label": "y"
  },
  {
    "compound": "O=C1c2ccccc2C(=O)N1N1CC1c1ccccc1 (stereo unspecified)",
    "qualitative.label": "n"
  },
  {
    "compound": "CC/C(Cc1ccccc1)=C(\\c1ccc(OCCN2CCCC2)cc1)c1ccc(OC(=O)NCc2ccccc2)cc1",
    "qualitative.label": "n"
  },
  {
    "compound": "O=c1[nH]c(=O)[nH]c(=O)[nH]1",
    "qualitative.label": "n"
  },
  {
    "compound": "C/C(=C\\c1ccn(-c2ccc(N)cc2F)n1)[C@@H]1C[C@@H]2O[C@]2(C)CCC[C@H](C)[C@H](O)[C@@H](C)C(=O)C(C)(C)[C@@H](O)CC(=O)O1",
    "qualitative.label": "n"
  },
  {
    "compound": "c1ccc2c(c1)sc1ccccc12",
    "qualitative.label": "n"
  },
  {
    "compound": "CCCCCCCCCCCCCCCCCC1OCC(COC(=O)O[C@@H](C(=O)O[C@H]2C[C@@]3(O)[C@@H](OC(=O)c4ccccc4)[C@@H]4[C@]5(OC(C)=O)CO[C@@H]5C[C@H](O)[C@@]4(C)C(=O)[C@H](OC(C)=O)C(=C2C)C3(C)C)[C@@H](NC(=O)c2ccccc2)c2ccccc2)O1 (stereo partly specified)",
    "qualitative.label": "n"
  },
  {
    "compound": "CC(=O)OC1CC2(O)C(CCC3(C)C(c4ccc(=O)oc4)CCC32O)C2(C)CCC(OC3OC(CO)C(O)C(O)C3O)C=C12 (stereo unspecified)",
    "qualitative.label": "y"
  },
  {
    "compound": "C[N+]1(CC#CC[N+]2(C)CCCC2)CCCC1",
    "qualitative.label": "n"
  },
  {
    "compound": "CC(=O)C(N)Cc1ccccc1 (stereo unspecified)",
    "qualitative.label": "n"
  },
  {
    "compound": "CC[C@H](C)[C@H](NC(=O)[C@H]1CCCCN1C)C(=O)N(C)[C@H](C[C@@H](OC(C)=O)c1cccc(C(=O)N[C@@H](Cc2ccccc2)C[C@H](C)C(=O)OC)n1)C(C)C",
    "qualitative.label": "n"
  }
]

Where do the numbers come from? From PubChem BioAssay (NCI).
